Target of assay: DDR1 (Homo sapiens)
Construct: purchased Carna Biosciences
Sequence (Q08345 19-913): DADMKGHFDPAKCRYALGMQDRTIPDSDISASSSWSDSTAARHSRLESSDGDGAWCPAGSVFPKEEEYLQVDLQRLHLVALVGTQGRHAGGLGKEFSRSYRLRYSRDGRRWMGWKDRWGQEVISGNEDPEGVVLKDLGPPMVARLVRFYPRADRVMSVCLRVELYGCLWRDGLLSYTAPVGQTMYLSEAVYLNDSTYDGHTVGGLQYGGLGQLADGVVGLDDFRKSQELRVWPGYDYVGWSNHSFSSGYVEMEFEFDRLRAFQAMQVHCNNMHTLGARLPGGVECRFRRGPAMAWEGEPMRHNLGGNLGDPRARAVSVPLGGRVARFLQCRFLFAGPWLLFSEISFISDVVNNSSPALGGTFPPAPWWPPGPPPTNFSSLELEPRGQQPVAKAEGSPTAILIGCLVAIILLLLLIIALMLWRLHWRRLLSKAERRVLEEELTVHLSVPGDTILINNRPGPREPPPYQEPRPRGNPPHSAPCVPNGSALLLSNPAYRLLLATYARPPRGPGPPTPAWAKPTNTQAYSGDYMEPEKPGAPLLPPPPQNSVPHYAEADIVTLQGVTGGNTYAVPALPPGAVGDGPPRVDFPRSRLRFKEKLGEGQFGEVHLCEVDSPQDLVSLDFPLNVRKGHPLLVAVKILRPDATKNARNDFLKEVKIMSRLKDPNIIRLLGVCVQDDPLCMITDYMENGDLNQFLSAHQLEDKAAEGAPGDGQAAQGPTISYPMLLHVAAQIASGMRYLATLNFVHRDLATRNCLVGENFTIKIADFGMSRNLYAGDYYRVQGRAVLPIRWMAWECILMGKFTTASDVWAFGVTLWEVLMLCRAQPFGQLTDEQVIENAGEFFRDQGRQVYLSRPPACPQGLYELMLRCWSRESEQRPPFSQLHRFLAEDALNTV
Measurement protocol: LanthaScreen Europium Kinase Binding assay, DDR1
Stated conditions: 5 nM DDR1, 20 nM Kinase Tracer 178, 1 h at rt; Ki from IC50 by Cheng-Prusoff; read-out: Ki DDR1
Ki: recorded values

# input Respond only with Ki recorded for `O=C(Nc1cccc(C(F)(F)F)c1)NC1CC2(C1)CN(C(=O)c1cnn3ccccc13)C2`
# output < 5 nM

# input Provide only the value of recorded Ki for `COc1ccc(OC(F)(F)F)cc1NC(=O)NC1CC2(C1)CN(C(=O)c1cnn3ccc(N4CCN(C)CC4)cc13)C2`
# output < 5 nM

# input Note Ki for the compound shown: `CN(C(=O)Nc1cncc(C(F)(F)F)c1)C1CC2(C1)CN(C(=O)c1ncnc3[nH]ccc13)C2`
# output < 5 nM

# input Entry `COc1ccc(OC(F)(F)F)cc1NC(=O)CC1CC2(C1)CN(C(=O)c1cnn3ccn(C)c13)C2` needs its Ki filled in; supply it.
# output < 5 nM

# input Tell me Ki reported for `O=C(Nc1cccc(C(F)(F)F)c1)NC1CC2(C1)CN(C(=O)c1cnn3ccc(N4CCS(=O)(=O)CC4)cc13)C2`
# output < 5 nM

# input Provide measured Ki value, entry: `CCOc1ccc(C(F)(F)F)cc1NC(=O)N(C)C1CC2(C1)CN(C(=O)c1cnn3ccn(C)c13)C2`
# output < 5 nM

# input Write down Ki measured for item `Cn1ccn2ncc(C(=O)N3CC4(CC(NC(=O)Nc5cc(C#N)cc(C(F)(F)F)c5)C4)C3)c12`
# output < 5 nM

# input Give recorded Ki. `Cc1ccc(C(F)(F)F)cc1NC(=O)N(C)C1CC2(C1)CN(C(=O)c1cnn3ccn(C)c13)C2`
# output < 5 nM

Cited source for all entries: patent US20260285855A1
